Reference source for all entries: PubChem BioAssay AID2060905

Please provide measured viability, T/C for the entries that follow.
Tested on: 282377-053-R-J1-PDC complex spheroid viability
Experiment: Anticancer human tumor 282377-053-R-J1-PDC patient-derived colon adenocarcinoma cell line growth inhibition [RAS]
Details: second compound 0.1 µM; first compound 0.316 µM; active compounds read low

Some solved entries appear below for comparison.
| COMPOUND | viability, T/C |
| --- | --- |
| CC1(O)CCCC1n1c(=O)c(C(F)F)cc2cnc(NC3CCN(S(C)(=O)=O)CC3)nc21 (stereo not drawn) + C=CC(=O)N1CCN(c2nc(OCC3CCCN3C)nc3c(F)c(-c4nc(N)cc(C)c4C(F)(F)F)c(Cl)cc23)C(C)C1 | 124% |
| CCC(CC)c1cc(NC2CCC(N)C2)n2nccc2n1 (stereo not drawn) + C#Cc1c(F)ccc2cc(O)cc(-c3ncc4c(N5CC6CCC(C5)N6)nc(OCC56CCCN5CC(F)C6)nc4c3F)c12 | 94.9% |

As a next step, examine the compound that follows.
Query: Bench note: what viability, T/C did C[C@@H](NC(=O)c1ncnc(N)c1Cl)c1ncc(C(=O)Nc2cc(C(F)(F)F)c(Cl)cn2)s1 + C#Cc1c(F)ccc2cc(O)cc(-c3ncc4c(N5CC6CCC(C5)N6)nc(OCC56CCCN5CC(F)C6)nc4c3F)c12 show?
Response: 88.7%

---

Test system: 282377-053-R-J1-PDC complex spheroid viability
Experiment: Anticancer human tumor 282377-053-R-J1-PDC cell line growth inhibition [RAS];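 note: spheroids exposed to agents for seven days before readout; luminescence viability as percent of DMSO vehicle control wells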
Settings: second compound 3.16 µM; first compound 1 µM; active compounds read low
Label 1 (yes) when viability, T/C is strictly below 90%; at or above that, label 0 (no).

| MOLECULE | QUALITATIVE_LABEL |
| --- | --- |
| Cc1nc(N2CCC3(CC2)COC(C)C3N)c(CO)nc1Sc1ccnc(N)c1Cl (configuration not stated) + C#Cc1c(F)ccc2cc(O)cc(-c3ncc4c(N5CC6CCC(C5)N6)nc(OCC56CCCN5CC(F)C6)nc4c3F)c12 | 0 (no) |
| C[C@@H](NC(=O)c1ncnc(N)c1Cl)c1ncc(C(=O)Nc2cc(C(F)(F)F)c(Cl)cn2)s1 + C#Cc1c(F)ccc2cc(O)cc(-c3ncc4c(N5CC6CCC(C5)N6)nc(OCC56CCCN5CC(F)C6)nc4c3F)c12 | 1 (yes) |
| C=CC(=O)N1CCN(c2nc(OCC3CCCN3C)nc3c(F)c(-c4nc(N)cc(C)c4C(F)(F)F)c(Cl)cc23)C(C)C1 (configuration not stated) + C#Cc1c(F)ccc2cc(O)cc(-c3ncc4c(N5CC6CCC(C5)N6)nc(OCC56CCCN5CC(F)C6)nc4c3F)c12 | 0 (no) |
| CC1(O)CCCC1n1c(=O)c(C(F)F)cc2cnc(NC3CCN(S(C)(=O)=O)CC3)nc21 (configuration not stated) + C#Cc1c(F)ccc2cc(O)cc(-c3ncc4c(N5CC6CCC(C5)N6)nc(OCC56CCCN5CC(F)C6)nc4c3F)c12 | 0 (no) |
| CC(C)NCC(C(=O)N1CCN(c2ncnc3c2C(C)CC3O)CC1)c1ccc(Cl)cc1 (configuration not stated) + C#Cc1c(F)ccc2cc(O)cc(-c3ncc4c(N5CC6CCC(C5)N6)nc(OCC56CCCN5CC(F)C6)nc4c3F)c12 | 1 (yes) |

Query: Please check: viability, T/C for CCN1CCN(Cc2ccc(Nc3ncc(F)c(-c4cc(F)c5nc(C)n(C(C)C)c5c4)n3)nc2)CC1 + C#Cc1c(F)ccc2cc(O)cc(-c3ncc4c(N5CC6CCC(C5)N6)nc(OCC56CCCN5CC(F)C6)nc4c3F)c12 , strictly under 90% or not?
Response: 0 (no)

Query: Please state whether viability, T/C is below 90% for NC1c2ccccc2OC12CCN(c1cnc3c(N4CCCc5ncccc54)n[nH]c3n1)CC2 (configuration not stated) + C#Cc1c(F)ccc2cc(O)cc(-c3ncc4c(N5CC6CCC(C5)N6)nc(OCC56CCCN5CC(F)C6)nc4c3F)c12
Response: 1 (yes)

---

Tested on: 282377-053-R-J1-PDC complex spheroid viability
Assay: Anticancer human tumor 282377-053-R-J1-PDC cell line growth inhibition [RAS];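 note: spheroids exposed to agents for seven days before readout; luminescence viability as percent of DMSO vehicle control wells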
Details: second compound 0.03 µM; first compound 0.00949 µM; active compounds read low
Assign viability, T/C to each entry below.
Answers are plain numbers, in %.

// known answers, use as guide
| COMPOUND | VALUE |
| --- | --- |
| CC1(C)CCC(Nc2ncc(C(F)(F)F)c(-c3c[nH]c4c(P(C)(C)=O)c(C#N)ccc34)n2)CN1 (centres undefined) + CCn1c(-c2cc(N3CCN(C)CC3)cnc2C(C)OC)c2c3cc(ccc31)-c1csc(n1)CC(NC(=O)C1CC1C)C(=O)N1CCCC(N1)C(=O)OCC(C)(C)C2 | 110 |
| CCc1c2c(nc3ccc(O)cc13)-c1cc3c(c(=O)n1C2)COC(=O)[C@]3(O)CC + CCn1c(-c2cccnc2C(C)OC)c2c3cc(ccc31)N1CCOC(CC(NC(=O)C(C(C)C)N(C)C(=O)C3(F)CCN(C(=O)C#CC(C)(C)N(C)C)CC3)C(=O)N3CCCC(N3)C(=O)OCC(C)(C)C2)C1 | 146 |
| CC1(C)CCC(Nc2ncc(C(F)(F)F)c(-c3c[nH]c4c(P(C)(C)=O)c(C#N)ccc34)n2)CN1 (centres undefined) + CCn1c(-c2cccnc2C(C)OC)c2c3cc(ccc31)N1CCOC(CC(NC(=O)C(C(C)C)N(C)C(=O)C3(F)CCN(C(=O)C#CC(C)(C)N(C)C)CC3)C(=O)N3CCCC(N3)C(=O)OCC(C)(C)C2)C1 | 98.2 |

Query: Recorded viability, T/C of CCc1c2c(nc3ccc(O)cc13)-c1cc3c(c(=O)n1C2)COC(=O)[C@]3(O)CC + CCn1c(-c2cc(N3CCN(C)CC3)cnc2C(C)OC)c2c3cc(ccc31)-c1csc(n1)CC(NC(=O)C1CC1C)C(=O)N1CCCC(N1)C(=O)OCC(C)(C)C2 , please.
Response: 139

---

I'd appreciate it if you could supply viability, T/C values for the items below.
System: 282377-053-R-J1-PDC complex spheroid viability
Test: Anticancer human tumor 282377-053-R-J1-PDC cell line growth inhibition [RAS];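 note: spheroids exposed to agents for seven days before readout; luminescence viability as percent of DMSO vehicle control wells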
Conditions: second compound 1 µM; first compound 10 µM; active compounds read low
One number for each entry, in %.

Example entries and their recorded answers appear below.
| COMPOUND | viability, T/C, % |
| --- | --- |
| CC(Nc1ccc2c(c1)OCCn1cc(N3C(=O)OCC3C(F)F)nc1-2)C(N)=O (stereo not given) + C=CC(=O)N1CCN(c2nc(OCC3CCCN3C)nc3c(F)c(-c4nc(N)cc(C)c4C(F)(F)F)c(Cl)cc23)C(C)C1 | 83.8 |
| CC(=O)OC12COC1CC(O)C1(C)C(=O)C(O)C3=C(C)C(OC(=O)C(O)C(NC(=O)OC(C)(C)C)c4ccccc4)CC(O)(C(OC(=O)c4ccccc4)C21)C3(C)C (stereo not given) + C=CC(=O)N1CCN(c2nc(OCC3CCCN3C)nc3c(F)c(-c4nc(N)cc(C)c4C(F)(F)F)c(Cl)cc23)C(C)C1 | 58.6 |
| Cc1nc(N2CCC3(CC2)COC(C)C3N)c(CO)nc1Sc1ccnc(N)c1Cl (stereo not given) + C=CC(=O)N1CCN(c2nc(OCC3CCCN3C)nc3c(F)c(-c4nc(N)cc(C)c4C(F)(F)F)c(Cl)cc23)C(C)C1 | 101 |

For each entry beneath this line, provide reported viability, T/C.
1. CCC(CC)c1cc(NC2CCC(N)C2)n2nccc2n1 (stereo not given) + C#Cc1c(F)ccc2cc(O)cc(-c3ncc4c(N5CC6CCC(C5)N6)nc(OCC56CCCN5CC(F)C6)nc4c3F)c12
2. CC(Nc1ccc2c(c1)OCCn1cc(N3C(=O)OCC3C(F)F)nc1-2)C(N)=O (stereo not given) + C#Cc1c(F)ccc2cc(O)cc(-c3ncc4c(N5CC6CCC(C5)N6)nc(OCC56CCCN5CC(F)C6)nc4c3F)c12

Response:
1: 2.23; 2: 93.3

---

Test system: 282377-053-R-J1-PDC complex spheroid viability
Test: Anticancer human tumor 282377-053-R-J1-PDC cell line growth inhibition [RAS];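 note: spheroids exposed to agents for seven days before readout; luminescence viability as percent of DMSO vehicle control wells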
Settings: second compound 0.1 µM; first compound 0.316 µM; active compounds read low
MEASUREMENT_LABEL: viability, T/C (%)
Answers are plain numbers, in %.

Record excerpt, results attached:
| COMPOUND | TESTED_TARGET | viability, T/C, % |
| --- | --- | --- |
| CCN1CCN(Cc2ccc(Nc3ncc(F)c(-c4cc(F)c5nc(C)n(C(C)C)c5c4)n3)nc2)CC1 + C=CC(=O)N1CCN(c2nc(OCC3CCCN3C)nc3c(F)c(-c4nc(N)cc(C)c4C(F)(F)F)c(Cl)cc23)C(C)C1 | 282377-053-R-J1-PDC complex spheroid viability | 106 |
| C[C@@H](NC(=O)c1ncnc(N)c1Cl)c1ncc(C(=O)Nc2cc(C(F)(F)F)c(Cl)cn2)s1 + C=CC(=O)N1CCN(c2nc(OCC3CCCN3C)nc3c(F)c(-c4nc(N)cc(C)c4C(F)(F)F)c(Cl)cc23)C(C)C1 | 282377-053-R-J1-PDC complex spheroid viability | 99.9 |
| CC(Nc1ccc2c(c1)OCCn1cc(N3C(=O)OCC3C(F)F)nc1-2)C(N)=O (stereo not given) + C=CC(=O)N1CCN(c2nc(OCC3CCCN3C)nc3c(F)c(-c4nc(N)cc(C)c4C(F)(F)F)c(Cl)cc23)C(C)C1 | 282377-053-R-J1-PDC complex spheroid viability | 95.5 |
| O=C(c1ccc(F)c(F)c1Nc1ccc(I)cc1F)N1CC(O)([C@@H]2CCCCN2)C1 + C#Cc1c(F)ccc2cc(O)cc(-c3ncc4c(N5CC6CCC(C5)N6)nc(OCC56CCCN5CC(F)C6)nc4c3F)c12 | 282377-053-R-J1-PDC complex spheroid viability | 26 |

Query: Need viability, T/C of Nc1ccn(C2OC(CO)C(O)C2(F)F)c(=O)n1 (stereo not given) + C=CC(=O)N1CCN(c2nc(OCC3CCCN3C)nc3c(F)c(-c4nc(N)cc(C)c4C(F)(F)F)c(Cl)cc23)C(C)C1 , thanks.
Response: 47.2
